Overview of reported IC50 across a group of molecules:
- Test system: 134 cancer cell lines
- method.summary: Cell viability assay (ATPlite, 72 hours), IC50 on cancer cell line panel
- test.context: read-out: IC50 in cell proliferation assay, cell line TT (RET p.C634W)

{"molecule": "COc1cc2ncnc(Nc3ccc(F)c(Cl)c3)c2cc1NC(=O)/C=C/CN1CCCCC1 [dacomitinib]", "target.of.assay": "134 cancer cell lines", "IC50": "4.83 µM"}
{"molecule": "CC(=O)Nc1cccc(-n2c(=O)n(C3CC3)c(=O)c3c(Nc4ccc(I)cc4F)n(C)c(=O)c(C)c32)c1 [trametinib]", "target.of.assay": "134 cancer cell lines", "IC50": "1.05 µM"}
{"molecule": "CN1CCN(c2ccc(C(=O)Nc3n[nH]c4ccc(Cc5cc(F)cc(F)c5)cc34)c(NC3CCOCC3)c2)CC1 [entrectinib]", "target.of.assay": "134 cancer cell lines", "IC50": "9.26 µM"}
{"molecule": "COc1ccc(CN2C3CC2CN(c2ccc(-c4cc(OCC(C)(C)O)cn5ncc(C#N)c45)cn2)C3)cn1 [selpercatinib]", "target.of.assay": "134 cancer cell lines", "IC50": "0.019 µM"}
{"molecule": "FC(F)(F)c1ccc(CNc2ccc(Cc3c[nH]c4ncc(Cl)cc34)cn2)cn1 [pexidartinib]", "target.of.assay": "134 cancer cell lines", "IC50": "> 31.6 µM"}

====

Overview of reported pIC50 across a group of compounds:
- Test system: 134 cancer cell lines
- method.summary: Cell viability assay (ATPlite, 72 hours), IC50 on cancer cell line panel
- test.context: Homo sapiens, T98G, read-out: IC50 in cell proliferation assay
pIC50: −log10 of the molar value.

{"compound": "CCn1c(=O)c(-c2cc(NC(=O)Nc3ccccc3)c(F)cc2Br)cc2cnc(NC)cc21 [ripretinib]", "result.qualifier": "=", "pIC50": 5.46}
{"compound": "C=CC(=O)N1CCC([C@@H]2CCNc3c(C(N)=O)c(-c4ccc(Oc5ccccc5)cc4)nn32)CC1 [zanubrutinib]", "result.qualifier": "<", "pIC50": 4.50}
{"compound": "CC#CC(=O)N1CCC[C@H]1c1nc(-c2ccc(C(=O)Nc3ccccn3)cc2)c2c(N)nccn12 [acalabrutinib]", "result.qualifier": "<", "pIC50": 4.50}
{"compound": "C[C@@H](Oc1cc(-c2cnn(C3CCNCC3)c2)cnc1N)c1c(Cl)ccc(F)c1Cl [crizotinib]", "result.qualifier": "=", "pIC50": 5.43}

====

- target.of.assay: panel of 255 wild-type kinases (Homo sapiens)
- method.summary: Kinase panel profiling at 1 µmol/L (MSA or IMAP), percentage inhibition
- Type: biochemical
- test.context: kinase FGFR1; 1 µmol/L single concentration; read-out: %-inhibition at 1 µmol/L, FGFR1
Overview of reported inhibition at 1 µM across a group of compounds:

{"line.notation": "CCn1c(=O)c(-c2cc(NC(=O)Nc3ccccc3)c(F)cc2Br)cc2cnc(NC)cc21", "inhibition at 1 µM (%)": 92}
{"line.notation": "O=C(Nc1cnn2ccc(N3CCC[C@@H]3c3cc(F)ccc3F)nc12)N1CC[C@H](O)C1", "inhibition at 1 µM (%)": -2}
{"line.notation": "C[C@H](Nc1ncnc2nc[nH]c12)c1cc2cccc(Cl)c2c(=O)n1-c1ccccc1", "inhibition at 1 µM (%)": -0.103}
{"line.notation": "COc1ccc(CN2C3CC2CN(c2ccc(-c4cc(OCC(C)(C)O)cn5ncc(C#N)c45)cn2)C3)cn1", "inhibition at 1 µM (%)": 97}

====

- Test system: FGFR-altered cell lines
- method.summary: Cell viability assay, FGFR-altered versus FGFR wild-type cell lines
- Format: cell-based
- test.context: geometric average; read-out: average IC50 in the eight FGFR-altered cell lines
recorded.endpoint: IC50 (nM)

{"line.notation": "CCN1CCN(c2ccc(Nc3cc(N(C)C(=O)Nc4c(Cl)c(OC)cc(OC)c4Cl)ncn3)cc2)CC1", "target.of.assay": "FGFR-altered cell lines", "recorded.endpoint": "IC50", "experimental.result": 20}

====

- Tested on: AP-1060 (ETV6-NTRK3)
- method.summary: Cell viability assay
- test.context: read-out: IC50 in cell proliferation assay

{"compound": "COC(=O)N[C@@H](C)CNc1nccc(-c2cn(C(C)C)nc2-c2cc(Cl)cc(NS(C)(=O)=O)c2F)n1 [encorafenib]", "result.qualifier": "=", "IC50 [nM]": 2520}
{"compound": "CCN1C(=O)N(c2c(F)c(OC)cc(OC)c2F)Cc2cnc3[nH]c(CN4CCOCC4)cc3c21 [pemigatinib]", "result.qualifier": "=", "IC50 [nM]": 3420}
{"compound": "Cn1cnc2c(F)c(Nc3ccc(Br)cc3Cl)c(C(=O)NOCCO)cc21 [selumetinib]", "result.qualifier": ">", "IC50 [nM]": 31600}
{"compound": "COc1cc2ncnc(Nc3ccc(F)c(Cl)c3)c2cc1NC(=O)/C=C/CN1CCCCC1 [dacomitinib]", "result.qualifier": "=", "IC50 [nM]": 3460}
{"compound": "CCc1cc2c(cc1N1CCC(N3CCOCC3)CC1)C(C)(C)c1[nH]c3cc(C#N)ccc3c1C2=O [alectinib]", "result.qualifier": "=", "IC50 [nM]": 1130}
{"compound": "CCn1c(=O)c(-c2cc(NC(=O)Nc3ccccc3)c(F)cc2Br)cc2cnc(NC)cc21 [ripretinib]", "result.qualifier": "=", "IC50 [nM]": 2830}

====

- target.of.assay: panel of 255 wild-type kinases (Homo sapiens, UniProt P11802)
- Sequence (P11802 whole entry): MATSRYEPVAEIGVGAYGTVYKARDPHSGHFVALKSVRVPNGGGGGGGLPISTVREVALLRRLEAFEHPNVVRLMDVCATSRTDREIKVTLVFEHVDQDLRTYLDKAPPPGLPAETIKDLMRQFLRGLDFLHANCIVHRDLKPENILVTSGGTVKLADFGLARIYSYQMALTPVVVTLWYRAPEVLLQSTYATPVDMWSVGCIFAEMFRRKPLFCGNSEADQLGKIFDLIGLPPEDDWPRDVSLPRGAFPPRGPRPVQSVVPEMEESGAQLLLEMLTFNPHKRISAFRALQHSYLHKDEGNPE
- method.summary: Kinase panel profiling at 1 µmol/L (MSA or IMAP), percentage inhibition
- Type: biochemical
- test.context: CDK4/CycD3 kinase assay; 1 µmol/L single concentration; read-out: %-inhibition CDK4/CycD3

{"line.notation": "COc1cc2ncnc(Nc3ccc(F)c(Cl)c3)c2cc1NC(=O)/C=C/CN1CCCCC1", "inhibition at 1 µM (%)": -0.81}
{"line.notation": "CCN1C(=O)N(c2c(F)c(OC)cc(OC)c2F)Cc2cnc3[nH]c(CN4CCOCC4)cc3c21", "inhibition at 1 µM (%)": 9}
{"line.notation": "Cc1cc(Nc2ncnc3ccc(NC4=NC(C)(C)CO4)cc23)ccc1Oc1ccn2ncnc2c1", "inhibition at 1 µM (%)": -2}
{"line.notation": "CCn1c(=O)c(-c2cc(NC(=O)Nc3ccccc3)c(F)cc2Br)cc2cnc(NC)cc21", "inhibition at 1 µM (%)": -1.19}
{"line.notation": "Cn1cnc2c(F)c(Nc3ccc(Br)cc3Cl)c(C(=O)NOCCO)cc21", "inhibition at 1 µM (%)": -1.85}
{"line.notation": "CO[C@]1(C(=O)N[C@@H](C)c2ccc(-n3cc(F)cn3)nc2)CC[C@H](c2nc(C)cc(Nc3cc(C)[nH]n3)n2)CC1", "inhibition at 1 µM (%)": -1}
{"line.notation": "CN1CCN(c2ccc(C(=O)Nc3n[nH]c4ccc(Cc5cc(F)cc(F)c5)cc34)c(NC3CCOCC3)c2)CC1", "inhibition at 1 µM (%)": -7.43}
{"line.notation": "C[C@H]1Oc2cc(cnc2N)-c2c(nn(C)c2C#N)CN(C)C(=O)c2ccc(F)cc21", "inhibition at 1 µM (%)": -7}
{"line.notation": "FC(F)(F)c1ccc(CNc2ccc(Cc3c[nH]c4ncc(Cl)cc34)cn2)cn1", "inhibition at 1 µM (%)": -1.58}
{"line.notation": "COc1ccc(CN2C3CC2CN(c2ccc(-c4cc(OCC(C)(C)O)cn5ncc(C#N)c45)cn2)C3)cn1", "inhibition at 1 µM (%)": 0.921}
{"line.notation": "CCc1nc(C(N)=O)c(Nc2ccc(N3CCC(N4CCN(C)CC4)CC3)c(OC)c2)nc1NC1CCOCC1", "inhibition at 1 µM (%)": 46}
{"line.notation": "CCN1CCN(c2ccc(Nc3cc(N(C)C(=O)Nc4c(Cl)c(OC)cc(OC)c4Cl)ncn3)cc2)CC1", "inhibition at 1 µM (%)": 66}
{"line.notation": "O=C(Nc1cnn2ccc(N3CCC[C@@H]3c3cc(F)ccc3F)nc12)N1CC[C@H](O)C1", "inhibition at 1 µM (%)": -0.745}
{"line.notation": "Cc1nc(NC(=O)N2CCC[C@H]2C(N)=O)sc1-c1ccnc(C(C)(C)C(F)(F)F)c1", "inhibition at 1 µM (%)": -10}
{"line.notation": "COC(=O)N[C@@H](C)CNc1nccc(-c2cn(C(C)C)nc2-c2cc(Cl)cc(NS(C)(=O)=O)c2F)n1", "inhibition at 1 µM (%)": 10}
{"line.notation": "C[C@H](Nc1ncnc2nc[nH]c12)c1cc2cccc(Cl)c2c(=O)n1-c1ccccc1", "inhibition at 1 µM (%)": -10}
{"line.notation": "C=CC(=O)N1CCC([C@@H]2CCNc3c(C(N)=O)c(-c4ccc(Oc5ccccc5)cc4)nn32)CC1", "inhibition at 1 µM (%)": -1.7}
{"line.notation": "Cn1cnc2c(F)c(Nc3ccc(Br)cc3F)c(C(=O)NOCCO)cc21", "inhibition at 1 µM (%)": 3.25}
{"line.notation": "Cn1cc(-c2cc3c(N4CCN(c5ncc([C@@](C)(N)c6ccc(F)cc6)cn5)CC4)ncnn3c2)cn1", "inhibition at 1 µM (%)": 9}

FYI, the data here is from paper PMC9516332.
